Target: human PTPN2 (1-387) (Homo sapiens (Human), UniProt P17706)
Sequence (P17706 other isoform, or with tags, fused parts or gaps): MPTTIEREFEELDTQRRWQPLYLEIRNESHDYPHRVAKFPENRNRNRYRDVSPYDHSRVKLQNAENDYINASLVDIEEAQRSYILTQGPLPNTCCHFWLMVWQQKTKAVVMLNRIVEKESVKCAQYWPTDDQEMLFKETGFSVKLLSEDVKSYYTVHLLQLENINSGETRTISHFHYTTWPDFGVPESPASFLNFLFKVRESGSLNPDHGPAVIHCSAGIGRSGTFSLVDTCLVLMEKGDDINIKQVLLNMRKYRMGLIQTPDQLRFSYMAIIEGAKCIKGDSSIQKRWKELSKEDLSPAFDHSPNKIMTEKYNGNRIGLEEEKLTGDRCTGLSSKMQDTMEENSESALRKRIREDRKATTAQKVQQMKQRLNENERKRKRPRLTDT
pIC50: −log10 of the molar value.
Returns true if the recorded pIC50 is greater than or equal to 7, and false otherwise.

[
  {
    "compound": "O=P(O)(O)C(F)(F)c1sc2ccc(-c3nc4ccccc4[nH]3)cc2c1Br",
    "class-label": "false"
  },
  {
    "compound": "Cc1c(C(F)(F)P(=O)(O)O)sc2c(OCC3CC3(F)F)cc(C(N)=O)cc12 (stereo not shown)",
    "class-label": "false"
  },
  {
    "compound": "NC(=O)c1cc(OCc2ccc(OC(F)(F)F)cc2)c2sc(C(F)(F)P(=O)(O)O)c(Br)c2c1",
    "class-label": "true"
  },
  {
    "compound": "NC(=O)c1cc(OCCCS(N)(=O)=O)c2sc(C(F)(F)P(=O)(O)O)c(C(F)(F)F)c2c1",
    "class-label": "true"
  },
  {
    "compound": "NC(=O)c1cc(OCC2CC2(F)F)c2sc(C(F)(F)P(=O)(O)O)c(Br)c2c1 (stereo not shown)",
    "class-label": "true"
  },
  {
    "compound": "COC(C)(C)C#Cc1cc(C(N)=O)cc2c(Br)c(C(F)(F)P(=O)(O)O)sc12",
    "class-label": "false"
  },
  {
    "compound": "Cc1nn(C)c(C)c1CNC(=O)c1ccc2sc(C(F)(F)P(=O)(O)O)c(Br)c2c1",
    "class-label": "false"
  },
  {
    "compound": "CS(=O)(=O)CCCCOc1cc(C(N)=O)cc2c(Br)c(C(F)(F)P(=O)(O)O)sc12",
    "class-label": "true"
  },
  {
    "compound": "O=C(NCc1n[nH]c(=O)[nH]1)c1ccc2sc(C(F)(F)P(=O)(O)O)c(Br)c2c1",
    "class-label": "false"
  },
  {
    "compound": "O=C(NCC1CNC1)c1ccc2sc(C(F)(F)P(=O)(O)O)c(Br)c2c1",
    "class-label": "false"
  },
  {
    "compound": "NC(=O)c1cc(OCCC2CCCS2(=O)=O)c2sc(C(F)(F)P(=O)(O)O)c(Br)c2c1 (stereo not shown) [Compound 264]",
    "class-label": "true"
  },
  {
    "compound": "O=C(NCc1cc(C2CC2)on1)c1ccc2sc(C(F)(F)P(=O)(O)O)c(Br)c2c1",
    "class-label": "false"
  },
  {
    "compound": "O=C(NCc1cccnn1)c1cc(OCCCc2cncs2)c2sc(C(F)(F)P(=O)(O)O)c(Br)c2c1",
    "class-label": "true"
  }
]

====

Each entry below carries its reported IC50.
Molecular target: human PTPN1 (1-435) (Homo sapiens (Human))
Sequence (P18031 whole entry): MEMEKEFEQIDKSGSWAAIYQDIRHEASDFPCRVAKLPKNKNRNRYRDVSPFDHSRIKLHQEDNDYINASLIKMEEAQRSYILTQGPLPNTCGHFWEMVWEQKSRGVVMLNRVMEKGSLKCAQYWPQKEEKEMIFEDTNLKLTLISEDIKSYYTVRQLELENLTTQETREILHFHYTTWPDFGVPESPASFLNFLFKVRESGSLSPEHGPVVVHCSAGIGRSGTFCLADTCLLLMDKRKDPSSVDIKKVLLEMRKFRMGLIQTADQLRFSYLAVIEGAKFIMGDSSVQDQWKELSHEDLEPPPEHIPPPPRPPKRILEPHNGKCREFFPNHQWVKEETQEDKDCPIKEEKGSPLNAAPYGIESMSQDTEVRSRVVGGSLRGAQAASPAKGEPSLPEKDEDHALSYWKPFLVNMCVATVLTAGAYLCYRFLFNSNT
parameter-measured: IC50 (nM)

[
  {
    "molecule": "O=C(NC1(c2cccc(F)c2)CCCC1)c1ccc2sc(C(F)(F)P(=O)(O)O)c(Br)c2c1 [Compound 115]",
    "target-desc": "human PTPN1 (1-435) (Homo sapiens (Human))",
    "parameter-measured": "IC50",
    "observed": 3620
  },
  {
    "molecule": "O=P(O)(O)C(F)(F)c1sc2c(OCCCC(F)(F)F)cc(-c3c[nH]cn3)cc2c1Br [Compound 416]",
    "target-desc": "human PTPN1 (1-435) (Homo sapiens (Human))",
    "parameter-measured": "IC50",
    "observed": 137
  },
  {
    "molecule": "COc1ccc(COc2cc(C(N)=O)cc3c(Br)c(C(F)(F)P(=O)(O)O)sc23)c(C(F)(F)F)c1 [Compound 348]",
    "target-desc": "human PTPN1 (1-435) (Homo sapiens (Human))",
    "parameter-measured": "IC50",
    "observed": 177
  },
  {
    "molecule": "CS(=O)(=O)c1ccc(COc2cc(C(N)=O)cc3c(Br)c(C(F)(F)P(=O)(O)O)sc23)c(Cl)c1 [Compound 387]",
    "target-desc": "human PTPN1 (1-435) (Homo sapiens (Human))",
    "parameter-measured": "IC50",
    "observed": 35.8
  },
  {
    "molecule": "Cn1cc(NC(=O)c2ccc3sc(C(F)(F)P(=O)(O)O)c(Br)c3c2)cn1 [Compound 96]",
    "target-desc": "human PTPN1 (1-435) (Homo sapiens (Human))",
    "parameter-measured": "IC50",
    "observed": 940
  },
  {
    "molecule": "Cc1c(C(F)(F)P(=O)(O)O)sc2c(OCC3CC3(F)F)cc(C(N)=O)cc12 (stereo not shown) [Compound 434]",
    "target-desc": "human PTPN1 (1-435) (Homo sapiens (Human))",
    "parameter-measured": "IC50",
    "observed": 482
  },
  {
    "molecule": "CC1CCS(=O)(=O)C1CCOc1cc(C(N)=O)cc2c(Br)c(C(F)(F)P(=O)(O)O)sc12 (stereo not shown) [Compound 392]",
    "target-desc": "human PTPN1 (1-435) (Homo sapiens (Human))",
    "parameter-measured": "IC50",
    "observed": 153
  }
]

====

Molecular target: human PTPN2 (1-387) (Homo sapiens (Human))
pIC50: −log10 of the molar value.
Assign Met to entries whose pIC50 meets or exceeds 7; assign Not met to the rest.

[
  {
    "compound": "CNC(=O)c1cc(OCCC2CC2(F)F)c2sc(C(F)(F)P(=O)(O)O)c(Br)c2c1 (stereo not shown) [Compound 322]",
    "class-label": "Met"
  },
  {
    "compound": "NC(=O)c1cc(OCc2cc(C(F)(F)F)cc(C(F)(F)F)c2)c2sc(C(F)(F)P(=O)(O)O)c(Br)c2c1 [Compound 384]",
    "class-label": "Not met"
  },
  {
    "compound": "NC(=O)c1cc(OCCCC2(S(N)(=O)=O)CC2)c2sc(C(F)(F)P(=O)(O)O)c(Br)c2c1 [Compound 335]",
    "class-label": "Met"
  },
  {
    "compound": "O=C(NCCn1nncc1-c1ccccc1)c1ccc2sc(C(F)(F)P(=O)(O)O)c(Br)c2c1 [Compound 150]",
    "class-label": "Not met"
  },
  {
    "compound": "COc1ccc(NC(=O)c2ccc3sc(C(F)(F)P(=O)(O)O)c(Br)c3c2)cc1 [Compound 29]",
    "class-label": "Not met"
  },
  {
    "compound": "C[C@@H](NC(=O)c1ccc2sc(C(F)(F)P(=O)(O)O)c(Br)c2c1)c1ncc(F)cn1 [Compound 182]",
    "class-label": "Not met"
  },
  {
    "compound": "O=C(NCc1c[nH]nn1)c1cc(O)c2sc(C(F)(F)P(=O)(O)O)c(Br)c2c1 [Compound 167]",
    "class-label": "Not met"
  },
  {
    "compound": "CS(=O)(=O)CCCOc1cc(C(N)=O)cc2c(Cl)c(C(F)(F)P(=O)(O)O)sc12 [Compound 333]",
    "class-label": "Met"
  },
  {
    "compound": "CN(C)S(=O)(=O)CCCOc1cc(C(N)=O)cc2c(Br)c(C(F)(F)P(=O)(O)O)sc12 [Compound 374]",
    "class-label": "Met"
  },
  {
    "compound": "CS(=O)(=O)N1CCC(NC(=O)c2ccc3sc(C(F)(F)P(=O)(O)O)c(Br)c3c2)CC1 [Compound 44]",
    "class-label": "Not met"
  },
  {
    "compound": "N#Cc1c(C(F)(F)P(=O)(O)O)sc2ccc(C(=O)NCc3cccnn3)cc12 [Compound 172]",
    "class-label": "Not met"
  },
  {
    "compound": "NC(=O)c1cc(OCc2ccccc2F)c2sc(C(F)(F)P(=O)(O)O)c(Br)c2c1 [Compound 242]",
    "class-label": "Met"
  },
  {
    "compound": "O=C(Nc1ccccc1F)c1ccc2sc(C(F)(F)P(=O)(O)O)c(Br)c2c1 [Compound 32]",
    "class-label": "Not met"
  },
  {
    "compound": "CCCCCOc1cc(C(N)=O)cc2c(Br)c(C(F)(F)P(=O)(O)O)sc12 [Compound 239]",
    "class-label": "Met"
  }
]

====

The compounds below have reported log10 IC50 for human PTPN2 (1-387) (Homo sapiens (Human), UniProt P17706).
parameter-measured: log10 IC50 (log10 of the value in nM)

[
  {
    "compound": "NC(=O)c1cc(OCc2ccc(C(F)(F)F)c(F)c2)c2sc(C(F)(F)P(=O)(O)O)c(Br)c2c1 [Compound 357]",
    "log10 IC50": 1.14
  },
  {
    "compound": "O=C(NC1(c2cncc(C(F)(F)F)c2)CC1)c1ccc2sc(C(F)(F)P(=O)(O)O)c(Br)c2c1 [Compound 111]",
    "log10 IC50": 3.63
  },
  {
    "compound": "CC(C)(O)CCCOc1cc(C(N)=O)cc2c(Br)c(C(F)(F)P(=O)(O)O)sc12 [Compound 306]",
    "log10 IC50": 1.21
  },
  {
    "compound": "NC(=O)c1cc(OCc2ccc(C(F)(F)F)cc2F)c2sc(C(F)(F)P(=O)(O)O)c(Br)c2c1 [Compound 338]",
    "log10 IC50": 1.71
  },
  {
    "compound": "CNC(=O)c1cc(OCCCCS(C)(=O)=O)c2sc(C(F)(F)P(=O)(O)O)c(Br)c2c1 [Compound 324]",
    "log10 IC50": 1.48
  },
  {
    "compound": "CC(Cn1ccnc1)NC(=O)c1ccc2sc(C(F)(F)P(=O)(O)O)c(Br)c2c1 (stereo not drawn) [Compound 148]",
    "log10 IC50": 3.77
  },
  {
    "compound": "NC(=O)c1cc(OCCC2CCNS2(=O)=O)c2sc(C(F)(F)P(=O)(O)O)c(Br)c2c1 (single isomer, unassigned) [Compound 461]",
    "log10 IC50": 1.35
  },
  {
    "compound": "N#Cc1c(C(F)(F)P(=O)(O)O)sc2ccc(C(=O)Nc3ccccc3)cc12 [Compound 3]",
    "log10 IC50": 3.01
  },
  {
    "compound": "CS(=N)(=O)c1cc(OCCCC(F)(F)F)c2sc(C(F)(F)P(=O)(O)O)c(Br)c2c1 (stereo not drawn) [Compound 414]",
    "log10 IC50": 3.83
  },
  {
    "compound": "CC(NC(=O)c1ccc2sc(C(F)(F)P(=O)(O)O)c(Br)c2c1)c1nncn1C (stereo not drawn) [Compound 175]",
    "log10 IC50": 3.31
  },
  {
    "compound": "CCC(NC(=O)c1ccc2sc(C(F)(F)P(=O)(O)O)c(Br)c2c1)c1ncnn1C (stereo not drawn) [Compound 191]",
    "log10 IC50": 3.45
  },
  {
    "compound": "C[C@@H](NC(=O)c1ccc2sc(C(F)(F)P(=O)(O)O)c(Br)c2c1)c1cccnc1 [Compound 199]",
    "log10 IC50": 3.23
  },
  {
    "compound": "CC1CCS(=O)(=O)C1CCOc1cc(C(N)=O)cc2c(Br)c(C(F)(F)P(=O)(O)O)sc12 (single isomer, unassigned) [Compound 393]",
    "log10 IC50": 1.68
  },
  {
    "compound": "O=C(NCc1nccc(-c2cccnc2)n1)c1ccc2sc(C(F)(F)P(=O)(O)O)c(Br)c2c1 [Compound 91]",
    "log10 IC50": 3.79
  },
  {
    "compound": "CC(C)(C#N)CCCOc1cc(C(N)=O)cc2c(Br)c(C(F)(F)P(=O)(O)O)sc12 [Compound 278]",
    "log10 IC50": 1.24
  }
]
